Molecular target: recombinant human ER-β (Homo sapiens, UniProt Q92731)
Construct: purchased Invitrogen (Carlsbad, Calif.)
Sequence (Q92731 whole entry): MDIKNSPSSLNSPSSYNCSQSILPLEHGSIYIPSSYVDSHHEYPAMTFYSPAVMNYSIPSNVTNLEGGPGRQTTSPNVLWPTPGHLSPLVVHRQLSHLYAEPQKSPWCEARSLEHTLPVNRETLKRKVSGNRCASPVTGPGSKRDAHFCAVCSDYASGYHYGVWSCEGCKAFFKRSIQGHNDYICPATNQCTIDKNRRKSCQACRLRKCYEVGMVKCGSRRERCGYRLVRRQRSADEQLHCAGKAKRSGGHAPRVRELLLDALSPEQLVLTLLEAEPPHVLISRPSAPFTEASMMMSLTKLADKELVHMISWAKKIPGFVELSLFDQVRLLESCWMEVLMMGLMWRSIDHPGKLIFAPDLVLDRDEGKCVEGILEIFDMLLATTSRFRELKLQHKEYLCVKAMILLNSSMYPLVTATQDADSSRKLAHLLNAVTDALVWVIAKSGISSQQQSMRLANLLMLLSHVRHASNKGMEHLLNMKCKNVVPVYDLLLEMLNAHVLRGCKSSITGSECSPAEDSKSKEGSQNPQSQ
Experiment: Binding affinity for recombinant human ER-β (fluorescence polarization, ES2 displacement)
Settings: Table 1; determined only for compounds with >90% competition
outcome measure: EC50 (nM)

Please review the following examples before continuing.
CCC(=C(c1ccc(O)cc1)c1ccc(O)cc1)c1ccccc1 [Compound 7, reference compound]    307
Oc1ccc(C(=C(Cn2ccnc2)c2ccc(O)c(F)c2)c2ccc(O)cc2)cc1 [Compound 18b]    56.3

A. Oc1ccc(C(Cn2cnnc2)=C(c2ccc(O)cc2)c2ccc(O)cc2)cc1 [Compound 20a]
B. Oc1ccc(C(Cn2ccnc2)=C(c2ccc(O)cc2)c2ccc(O)cc2)cc1 [Compound 18a]
C. Nc1ccc(C(Cn2ccnc2)=C(c2ccc(O)cc2)c2ccc(O)cc2)cc1
D. Oc1ccc(C(=C(Cn2ccnc2)c2ccccc2)c2ccc(O)cc2)cc1
Parameters: sort_field (EC50), sort_dir (desc). Submit the labels in the order that the ranking request calls for.
A, C, B, D
